Data origin, for the record: PubChem BioAssay (NCI)

System: NCI-H322M lung
ASSAY NAME: NCI-60 one-dose screen, 48 h (100 = growth as untreated, 0 = no growth, -100 = all killed)
SETUP CONDITIONS: 10 µM unless noted
Experimental: Growth inhibition of the NCI-H322M human Non-Small Cell Lung tumor cell line is measured as a screen for anti-cancer activity. Cells are grown in 96 well plates and exposed to the test compound for 48 hours. Compounds are tested at a single concentration, which is 10^-5 M for most compounds. The reported endpoint is percent growth (GI% or GIPRCNT), where numbers from 0 - 100% represent growth inhibition, and numbers from -100% - 0 represent cell death. […]
This is part of a sample that, as a whole, favours compounds with a hit. Of some 83,000 tested, about 20% had one in any assay.
Recorded growth values for a group of molecules are listed next.
Value expressed in %; do not type the unit.

Check out these entries, answers already filled in.
Fc1ccc(CNc2c3ccccc3nc3ccccc23)cc1F	39
N[C@@H](CCCCNCC(=O)O)C(=O)O	110
O=c1c2cc(F)ccc2sc2c(NCCCN3CCCC3)nc3ccccc3c12	64.1
CC(=O)c1nc(Nc2ccc(C)cc2)sc1C	-98.9

Q. Value lookup for growth; key = O=C(Nc1ccccc1)Nc1cccc(Oc2nnc(Cl)c3ccccc23)c1
A. 47.3

Q. Can you handle CCCCCCCCCCCC(c1ccccc1)[N+](C)(C)C (stereo not given) next?
A. 57.3

Q. Moving on to the next molecule: O=C(Nc1ccc(Nc2ccncc2)cc1)c1ccc(C(=O)Nc2ccc(Nc3ccncc3)cc2)cc1
A. 71.9

Q. Could you do the same for Nc1n[nH]c2cc(F)c([C@@H]3Nc4c(F)cc5[nH]ncc5c4[C@H]4C5CCC(C5)[C@@H]34)cc12 (stereo not given in full) , please?
A. 57

Q. Likewise for O=C1N=c2cc3c(cc2=C/C1=C/c1sc(=S)n(CCc2ccc(O)cc2)c1O)OCCO3 ?
A. 95.9

Q. Would you mind doing COC(=O)c1c2c(c(C)[n+]([O-])c1C)C(=O)C(NCc1ccc(F)cc1)=CC2=O as well?
A. 15.9

---

Test system: NCI-H23 lung
ASSAY NAME: NCI-60 one-dose screen, 48 h (100 = growth as untreated, 0 = no growth, -100 = all killed)
SETUP CONDITIONS: 10 µM unless noted
Compounds without any hit were thinned out: in the full panel of roughly 83,000, 20% have a hit.
MEASURE NAME: growth (%)
Supply the numeric figure in %, leaving out any unit text.

FC(F)(F)c1cc(Nc2ccc3cc(OCCCN4CCOCC4)ccc3n2)ccc1Cl	36
S=C(Cc1ccc2c(c1)CCCC2)N1CCOCC1	98.4
O=c1c2cc(F)ccc2sc2c(NCCN3CCCCC3)nc3ccccc3c12	65.6
O=C(/C=C/c1cccc(O)c1)c1cccc(-n2cc(-c3ccc4ccccc4c3)[nH]c2=O)c1	28.2
CNS(=O)(=O)c1n[nH]nc1-c1cc(C(C)(C)C)c(O)c(C(C)(C)C)c1	105

Q. Entry C=C1C(=O)O[C@H]2[C@H]1CC/C(COC(=O)C(=O)c1cn(C)c3ccc(OC)cc13)=C\CC[C@@]1(C)O[C@@H]21 has what growth?
A. -36.1

Q. Queued: COc1cccc(-c2nc3sccn3c2-c2ccnc(NCCNS(=O)(=O)c3ccc(C(F)(F)F)cc3)c2)c1
A. 53.7

Q. Proceed to N#CC1=C(c2ccc(Br)cc2)NC(SCC(=O)c2ccc(Br)cc2)NC1=O (centres undefined)
A. 105

Q. Try COc1ccc(-c2nc3c(c(=O)n2C(C)=O)C(c2ccc(Cl)cc2)c2sc4c(Cl)cccc4c2O3)cc1 (centres undefined) next.
A. 3.67

---

Test system: SF-539 CNS
ASSAY NAME: NCI-60 one-dose screen, 48 h
SETUP CONDITIONS: 10 µM unless noted
Procedure: Cells are grown in 96 well plates and exposed to the test compound for 48 hours. Compounds are tested at a single concentration, which is 10^-5 M for most compounds. The reported endpoint is percent growth (GI% or GIPRCNT), where numbers from 0 - 100% represent growth inhibition, and numbers from -100% - 0 represent cell death. For example, a value of 40 represents 60% growth inhibition. A value of 0 means no net growth occurred over the course of the experiment. […]
Compounds without any hit were thinned out: in the full panel of roughly 83,000, 20% have a hit. The source made the active and inactive calls. Rule for the calls: active = growth percent below 10; inactive = the rest.
Use one of these outcomes when replying: y (active), n (inactive)

O=C(CCCCCCN1CC(=O)N2[C@@H](c3ccccc3Cl)c3[nH]c4ccccc4c3C[C@H]2C1=O)NO	n

Q. Dear colleague, could you share the recorded outcome for CNc1ccc(NC)c2c1C(=O)c1ccccc1C2=O when you have a moment?
A. n

---

System: MALME-3M melanoma
ASSAY NAME: NCI-60 one-dose screen, 48 h
SETUP CONDITIONS: 10 µM unless noted
The panel holds about 83,000 compounds, 20% with a hit somewhere; the sample as a whole holds those more often. Calls of active or inactive are those of the source. The calls were made as follows: active = growth percent below 10; inactive = the rest.
Assign a class; possible classes are y (active), n (inactive)

Illustrative cases are given below, each with its answer.
COc1ccc(C(=NN=C(N)N)c2ccc(OC)cc2)cc1	n
CCN(CC)CCCNc1ccc(Nc2ccc(OC)cc2)cc1	n
CCC1(C2CCCC2)NC(=O)NC1=O (configuration not stated)	n

Q. Hey, what did the test say about O=c1[nH]nc(-c2ccccc2)c2c(-c3ccccc3)onc12 ?
A. n

Q. Can you handle CCOc1ccccc1-n1c(CN2CCN(C(=O)COc3ccc(CNCCCCCCN4C5CCCC4CC(OC(=O)Nc4cc(C)ccc4OC)C5)cc3)CC2)nc2ccccc2c1=O (configuration not stated) next?
A. y

Q. And the next one, O=C(O)CN1C(=O)CCC1=O ?
A. n

Q. Request: CC(=O)c1ccc(NCC(=O)Nc2ccccn2)cc1
A. n

Q. Also check Cc1ccc(C2SCC(=O)N2Cc2ccccc2)cc1 (configuration not stated)
A. n

Q. Similarly, C=CCSc1nc2ccccc2cc1/C=N/O ?
A. n

Q. Can you handle COc1ccc(/C=c2\nc3n(-c4ccccc4)c4nc5c6c(sc5c(=N)n4n-3c2=O)CCCC6)cc1 next?
A. n

Q. Quick one: N#CC1=C(c2ccc(Br)cc2)NC(SCC(=O)c2ccc(Br)cc2)NC1=O (configuration not stated)
A. n

Q. Entry COc1ccc(-c2nc(SCC(=O)Nc3nc(-c4ccccc4)cs3)[nH]c(=O)c2C#N)cc1 please
A. n

Q. Same question, Oc1ccc(CN2CCC(N3CCOCC3)CC2)c2cccnc12 this time
A. y

Q. Again, but for CC/C=C\CCC/C=C1/C(=O)C=C[C@@H]1C/C=C\CCCC(=O)O
A. n

Q. Same thing, different molecule: COc1cc2nc(Cl)nc(Nc3ccc(S(=O)(=O)Nc4nccs4)cc3)c2cc1OC
A. n

Q. Also need N[C@@H](CCCCNCC(=O)O)C(=O)O , thanks.
A. n

Q. Further, for O=C1N=c2cc3c(cc2=C/C1=C/c1sc(=S)n(CCc2ccc(O)cc2)c1O)OCCO3 ?
A. n

Q. Can you handle CC(C)(C)C(CCc1ccc(Cl)cc1)N1CCN(C2CCCCC2)CC1 (configuration not stated) next?
A. n

Q. O=C1Nc2ccccc2/C1=C/c1cn(C(=O)c2c(Cl)cccc2Cl)c2ccccc12 ?
A. n

Q. Moving on to Cn1cc(-c2csc(-c3cccc(F)c3)n2)c2cccnc21
A. y

Q. CCN1C(=O)N(CC)C2Nn3c(s/c(=C\c4cccc([N+](=O)[O-])c4)c3=O)=NC21 (configuration not stated) , same question.
A. n

Q. Another molecule to check: CC1=CN2C(=O)C3C4=C(CCCC4)SC3N=C2CN1c1c(C)cccc1C (configuration not stated)
A. n

---

Test system: T-47D breast
ASSAY NAME: NCI-60 one-dose screen, 48 h
SETUP CONDITIONS: 10 µM unless noted
About 83,000 compounds went through this panel and 20% of them were active in at least one assay; those are over-represented in the sample as a whole. Activity calls are given as the source filed them. Rule for the calls: active = growth percent below 10; inactive = the rest.
Your answer must be one of the following: active, inactive

Q. Please state the recorded outcome for this compound: O=C(NC(CSSCC(NC(=O)c1ccccc1)C(=O)O)C(=O)O)c1ccccc1 (stereo not given)
A. inactive

Q. What do we get for O=C1/C(=C/c2ccc(Br)cc2)C=C(c2ccccc2)N1CCc1ccccc1 ?
A. inactive

Q. Request: COc1cccc(-c2nn(-c3ccccc3)cc2-c2ccnc(NCCCNC(=O)c3cccc(C(F)(F)F)c3)c2)c1
A. active

Q. COc1ccc(C(=O)/C=C/c2c(C(F)(F)F)nc3sccn23)cc1OC , same question.
A. active

Q. Try Cc1ccc(CCC(=O)Nc2ncc(Cc3cc(Cl)ccc3Cl)s2)o1 next.
A. inactive

Q. Quick one: COc1ccccc1N1C(=O)/C(=C/C2=Cc3ccccc3OC2)SC1=S
A. inactive

Q. Ok, now CC/C=C1/C(=O)C=C[C@@H]1C/C=C\CCCC(=O)O
A. inactive

Q. Would you kindly repeat that for CCCCCCCCCCCCCCCCCC1=NCCN1CCOC1=C(Cl)C(=O)c2ccccc2C1=O ?
A. inactive

Q. Thanks! And COc1ccc2nc(NNC(=O)c3cnccn3)c3cccn3c2c1 ?
A. active

Q. Param item: O=[N+]([O-])c1ccc(C2CC(c3ccccc3)=Nc3ccccc3S2)cc1 (stereo not given)
A. inactive
